Numbers sourced from ChEMBL document CHEMBL1153132.

- Tested on: Liver microsomes
- assay.remarks: Metabolic stability in rat liver microsomes
- Assay type: ADME, Microsome
Listed below: Stability values for each entry.

{"columns": ["structure.string", "target.system", "measure.unit", "Stability"],
 "data": [
  ["CCCCC(C)(C)C(=O)Nc1cc(C)c(C)c(S(=O)(=O)N2CCOCC2)c1", "Liver microsomes", "%", 0],
  ["CCC(C)(C)C(=O)Nc1cc(C)c(C)c(S(=O)(=O)N2CCCCC2)c1", "Liver microsomes", "%", 0],
  ["Cc1ccc(NC(=O)C2C(C)(C)C2(C)C)cc1S(=O)(=O)N1CCOCC1", "Liver microsomes", "%", 2],
  ["Cc1cc(NC(=O)C(C)(C)C)cc(S(=O)(=O)N2CCOCC2)c1C", "Liver microsomes", "%", 37]
]}

###

- target.system: Cannabinoid receptor 2 (Homo sapiens)
- Sequence (P34972 whole entry): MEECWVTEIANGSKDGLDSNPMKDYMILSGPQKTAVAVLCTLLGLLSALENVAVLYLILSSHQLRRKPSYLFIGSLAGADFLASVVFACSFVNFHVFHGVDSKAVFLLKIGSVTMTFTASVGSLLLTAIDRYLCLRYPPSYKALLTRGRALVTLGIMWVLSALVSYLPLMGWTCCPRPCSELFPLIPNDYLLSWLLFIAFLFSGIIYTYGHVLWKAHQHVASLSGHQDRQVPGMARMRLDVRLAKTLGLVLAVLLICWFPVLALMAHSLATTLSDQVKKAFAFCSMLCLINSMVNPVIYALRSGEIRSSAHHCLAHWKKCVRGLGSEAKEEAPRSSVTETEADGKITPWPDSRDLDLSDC
property: log10 of Ki (log10 of the value in µM)

{"columns": ["structure.string", "log10 of Ki"],
 "data": [
  ["CCC(C)(C)C(=O)Nc1cc(C)c(C)c(S(=O)(=O)N2CCSC2)c1", -2.16],
  ["CCC(C)(C)C(=O)Nc1cc(C)c(C)c(S(=O)(=O)NC2CCCC2)c1", -1.03],
  ["CCC(C)(C)C(=O)Nc1cc(S(=O)(=O)N2CCOCC2)c(C)cc1C", -0.12],
  ["CCCCC(C)(C)C(=O)Nc1cc(C)c(C)c(S(=O)(=O)N2CCOCC2)c1", -2.96],
  ["CCC(C)(C)C(=O)Nc1cc2c(c(S(=O)(=O)N3CCOCC3)c1)CCC2", -1.92],
  ["Cc1cc(NC(=O)C2C(C)(C)C2(C)C)cc(S(=O)(=O)N2CCOCC2)c1C", -1.80],
  ["Cc1cc(NC(=O)C(C)(C)C)cc(S(=O)(=O)N2CCOCC2)c1C", -1.40]
]}
